# ASSAY METHOD TEXT: melting temperature; melt of duplexes
# EXPERIMENTAL CONDITIONS: sodium 0.0675 M; strand 1 µM
One threshold, 50 °C, splits the recorded Tm values: lower ones are 1.0, equal or higher ones are 0.0.

# example entries with known answers
CGACGTGCGCAATGTGCTG+CAGCACATCTAGCACGTCG ((((((((...((((((((+))))))))...))))))))	0.0
CGACGTGCCTTATGTGCTG+CAGCACATTAGGCACGTCG ((((((((((.((((((((+)))))))).))))))))))	0.0
CGACGTGCACGATGTGCTG+CAGCACATACCGCACGTCG ((((((((...((((((((+))))))))...))))))))	1.0
CGACGTGCATCATGTGCTG+CAGCACATAGCGCACGTCG ((((((((...((((((((+))))))))...))))))))	1.0
CGACGTGCCCCATGTGCTG+CAGCACATAACGCACGTCG ((((((((...((((((((+))))))))...))))))))	1.0

**Q:** Tm under 50 °C? Item: CGACGTGCTAGATGTGCTG+CAGCACATATTGCACGTCG ((((((((.(.((((((((+)))))))).).))))))))
**A:** 0.0

**Q:** Tm under 50 °C? Item: CGACGTGCCTGATGTGCTG+CAGCACATCCCGCACGTCG ((((((((..(((((((((+)))))))))..))))))))
**A:** 0.0

**Q:** Tm under 50 °C? Item: CGACGTGCGTAATGTGCTG+CAGCACATCTAGCACGTCG ((((((((...((((((((+))))))))...))))))))
**A:** 0.0

**Q:** Tm under 50 °C? Item: CGACGTGCTCGATGTGCTG+CAGCACATCTGGCACGTCG ((((((((..(((((((((+)))))))))..))))))))
**A:** 0.0

**Q:** Tm under 50 °C? Item: CGACGTGCACAATGTGCTG+CAGCACATCCTGCACGTCG (((((((((..((((((((+))))))))..)))))))))
**A:** 1.0

Just for reference, the array DNA melting data of Ke et al. is where these values come from.
